Please go through the items and note down their growth.
Test system: E. coli TESEC Mtb Alr
Experiment: growth (OD600 after 10 h); higher = more growth (less inhibition)
Settings: arabinose 10000000 nM; compound 0.1 mM; raw OD600 reference: median of DMSO wells […], cell-free background 0.052
Structures can show the parent of a compound that is named as a salt.
Answers are plain numbers.

> print(dat)
                                   compound            studysystem  measurednumber
1  O=C(O)[C@H]1/C(=C/CO)O[C@@H]2CC(=O)N21 [Clavulanate potassium salt]  E. coli TESEC Mtb Alr           0.101
2  CCCCNC(=O)NS(=O)(=O)c1ccc(C)cc1 [Tolbutamide]  E. coli TESEC Mtb Alr           0.352
3                 Cc1ncc([N+](=O)[O-])n1CCO  E. coli TESEC Mtb Alr           0.347
4  CCCCCCCCNC(C)C(O)c1ccc(SC(C)C)cc1 (centres undefined)  E. coli TESEC Mtb Alr          0.0516
5  O=C(CCCN1CC=C(n2c(=O)[nH]c3ccccc32)CC1)c1ccc(F)cc1  E. coli TESEC Mtb Alr           0.276
6  Clc1ccc(C(Cn2ccnc2)OCc2csc3c(Cl)cccc23)c(Cl)c1 (centres undefined) [Sertaconazole nitrate]  E. coli TESEC Mtb Alr           0.123
7  CN1CC2c3ccccc3Oc3ccc(Cl)cc3C2C1 (centres undefined) [Asenapine maleate]  E. coli TESEC Mtb Alr           0.266
8      CC1(O)CCOC(=O)C1 (centres undefined)  E. coli TESEC Mtb Alr           0.349

We now examine a further compound.
// lookup growth for NCc1ccc(S(N)(=O)=O)cc1 [Mafenide hydrochloride]
0.373

====

Give growth for every item shown.
System: E. coli TESEC Alr+ wild-type control
Assay: growth (OD600 after 10 h); higher = more growth (less inhibition)
Conditions: compound 0.1 mM; raw OD600 reference: median of DMSO wells 0.241, cell-free background 0.041
Structures can show the parent of a compound that is named as a salt.

# example entries with known answers
compound	growth
CCN(CC)CCNC(C(=O)OCCC(C)C)c1ccccc1 (centres undefined) [Camylofine chlorhydrate]	0.198
COc1ccc(CC2c3cc(OC)c(OC)cc3CC[N+]2(C)CCC(=O)OCCCCCOC(=O)CC[N+]2(C)CCc3cc(OC)c(OC)cc3C2Cc2ccc(OC)c(OC)c2)cc1OC (centres undefined) [Atracurium besylate]	0.177
CC(=O)SCC(Cc1ccccc1)C(=O)NCC(=O)OCc1ccccc1 (centres undefined)	0.183
CCOc1ccc2ccccc2c1C(=O)N[C@@H]1C(=O)N2[C@@H]1SC(C)(C)[C@@H]2C(=O)O [Nafcillin sodium salt monohydrate]	0.236
C#C[C@]1(O)CC[C@H]2[C@@H]3CCC4=C(CCC(=O)C4)[C@H]3CC[C@@]21C	0.133

Value sought for every listed compound: growth.
1. O=C(O)CCNC(=O)c1ccc(/N=N/c2ccc(O)c(C(=O)O)c2)cc1 [Balsalazide Sodium]
2. CCN(CC)CCOC(=O)C(c1ccccc1)c1ccccc1 [Adiphenine hydrochloride]
3. C/C(=C(\CCOP(=O)(O)O)SC(=O)c1ccccc1)N(C=O)Cc1cnc(C)nc1N
4. CC[C@H](C)[C@H](N)C1=N[C@H](C(=O)N[C@@H](CC(C)C)C(=O)N[C@H](CCC(=O)O)C(=O)N[C@H](C(=O)N[C@H]2CCCCNC(=O)[C@H](CC(N)=O)NC(=O)[C@@H](CC(=O)O)NC(=O)[C@H](Cc3cnc[nH]3)NC(=O)[C@@H](Cc3ccccc3)NC(=O)[C@H]([C@@H](C)CC)NC(=O)[C@@H](CCCN)NC2=O)[C@@H](C)CC)CS1

[0.276, 0.222, 0.248, 0.306]

====

Tested on: E. coli TESEC Mtb Alr
Experiment: growth (OD600 after 10 h); higher = more growth (less inhibition)
Details: arabinose 10000000 nM; compound 0.1 mM; raw OD600 reference: median of DMSO wells […], cell-free background 0.052
Structures can show the parent of a compound that is named as a salt.
readoutLabel: growth
Give bare numbers.

compound	readoutLabel	measuredNumber
C[C@]12CCC(=O)C=C1CC[C@@H]1[C@@H]2[C@@H](O)C[C@@]2(C)[C@H]1CC[C@]2(O)C(=O)CO [Hydrocortisone base]	growth	0.302
CN(C)[C@@H]1C(=O)C(C(N)=O)=C(O)[C@@]2(O)C(=O)C3=C(O)c4c(O)ccc(Cl)c4[C@@H](O)[C@H]3C[C@@H]12 [Demeclocycline hydrochloride]	growth	0.0541
COC(=O)[C@H](c1ccccc1Cl)N1CCc2sccc2C1	growth	0.0754
CC1(C)[C@@H](OC(=O)CCC(=O)O)CC[C@]2(C)[C@H]3C(=O)C=C4[C@@H]5C[C@@](C)(C(=O)O)CC[C@]5(C)CC[C@@]4(C)[C@]3(C)CC[C@@H]12 [Carbenoxolone disodium salt]	growth	0.37
c1ccc([C@H]2CN3CCSC3=N2)cc1 [Levamisole hydrochloride]	growth	0.353

// moving on: another record for growth
I am curious: what growth value has been reported for CC(C)c1c(C(=O)Nc2ccccc2)c(-c2ccccc2)c(-c2ccc(F)cc2)n1CC[C@@H](O)C[C@@H](O)CC(=O)O ?
0.175

====

Please provide measured growth for the entries that follow.
Test system: E. coli TESEC Mtb Asd
Experiment: growth (OD600 after 10 h); higher = more growth (less inhibition)
Details: arabinose induction (level): Low; compound 0.1 mM; raw OD600 reference: median of DMSO wells 0.417, cell-free background 0.041
Counter-ions that a name gives are not always drawn.
One number for each entry.

compound	growth
Nc1ncnc2c1ncn2C1OC(COP(=O)(O)O)C(O)C1O (centres undefined) [Adenosine 5'-monophosphate monohydrate]	0.336
CCOc1ccccc1OCC1CNCCO1 (centres undefined) [Viloxazine hydrochloride]	0.386
N=C(N)N1CCc2ccccc2C1 [Debrisoquin sulfate]	0.373
CN[C@@H]1[C@@H](O[C@H]2O[C@H](CO)[C@@H](N)[C@H](O)[C@H]2O)OC2C[C@@H](N)[C@@H](O[C@H]3[C@H](O)[C@@H](O)[C@H](N)C[C@@H]3N)OC2[C@@H]1O (some centres undefined) [Apramycin]	0.0476
CCc1cccc2c3c([nH]c12)C(CC)(CC(=O)O)OCC3 (centres undefined) [Etodolac]	0.267
CN1CCC(=C2c3ccccc3Sc3ccccc32)CC1 [Pimethixene maleate]	0.161
CCN(CC)CCNC(=O)COc1ccc(OC)cc1 [Mefexamide hydrochloride]	0.411
O=c1[nH]cnc2c1ncn2[C@H]1CC[C@@H](CO)O1 [Didanosine]	0.165

# ---- query compound ----
For Nc1nc(/C(=C/CC(=O)O)C(=O)N[C@@H]2C(=O)N3C(C(=O)O)=CCS[C@H]23)cs1 [Ceftibuten] , what is its reported growth?
0.0769

====

Test system: E. coli TESEC Mtb Asd
Assay: growth (OD600 after 10 h); higher = more growth (less inhibition)
Settings: arabinose induction (level): Low; compound 0.1 mM; raw OD600 reference: median of DMSO wells 0.417, cell-free background 0.041
Where a name gives a salt, the structure may show the parent alone.
Give growth for every item shown.
One number for each entry.

> print(dat)
                  compound  measurednumber
1  O=c1[nH]cc(F)c(=O)[nH]1           0.238

Look at each compound and report its growth.
1. Cc1nnc(SCC2=C(C(=O)O)N3C(=O)[C@@H](NC(=O)Cn4cnnn4)[C@H]3SC2)s1 [Cefazolin sodium salt]
2. N=C(N)NCCN1CCCCCCC1 [Guanethidine sulfate]
3. Oc1ncnc2[nH]ncc12
4. COc1ccc2c(c1)N(C[C@H](C)CN(C)C)c1ccccc1S2 [Methotrimeprazine maleat salt]
5. CC1(C)S[C@@H]2[C@H](NC(=O)[C@H](N)c3ccc(O)cc3)C(=O)N2[C@H]1C(=O)O

1: 0.428; 2: 0.366; 3: 0.435; 4: 0.231; 5: 0.321

State recorded growth for all listed compounds.
1. CC(C[N+](C)(C)C)OC(N)=O (centres undefined) [Bethanechol chloride]
2. CC(C)(C(=O)O)c1ccc(C(O)CCCN2CCC(C(O)(c3ccccc3)c3ccccc3)CC2)cc1 (centres undefined) [Fexofenadine HCl]
3. CCOC1O[C@H]([C@@H](COCc2ccccc2)OCc2ccccc2)[C@H](OCc2ccccc2)[C@H]1O (some centres undefined) [Tribenoside]

[0.381, 0.348, 0.199]

====

Tested on: E. coli TESEC Mtb Alr
Assay: growth (OD600 after 10 h); higher = more growth (less inhibition)
Conditions: arabinose 1000 nM; compound 0.1 mM; raw OD600 reference: median of DMSO wells 0.294, cell-free background 0.041
Where a name gives a salt, the structure may show the parent alone.
readoutLabel: growth
Give bare numbers.

compound	growth
CN1CCOC(c2ccccc2)c2ccccc2C1 (stereo not given) [Nefopam hydrochloride]	0.294
C[C@@H]1[C@H](O)[C@@H](C)/C=C/C=C/C=C/C=C/C=C/C=C/C=C/[C@H](O[C@@H]2O[C@H](C)[C@@H](O)[C@H](N)[C@@H]2O)C[C@@H]2O[C@](O)(C[C@@H](O)C[C@@H](O)[C@H](O)CC[C@@H](O)C[C@@H](O)CC(=O)O[C@H]1C)C[C@H](O)[C@H]2C(=O)O	0.33
Cc1c(N(C)C)c(=O)n(-c2ccccc2)n1C	0.28
CO[C@H]1/C=C/O[C@@]2(C)Oc3c(C)c(O)c4c(O)c(c(/C=N/N5CCN(C6CCCC6)CC5)c(O)c4c3C2=O)NC(=O)/C(C)=C\C=C\[C@H](C)[C@H](O)[C@@H](C)[C@@H](O)[C@@H](C)[C@H](OC(C)=O)[C@@H]1C	0.0468
CC(=O)Oc1ccccc1C(=O)O	0.294

Need growth for each of these compounds.
1. CC(=O)NCCCS(=O)(=O)O [Acamprosate calcium]
2. CCN(CCCc1ccccc1)CCCc1ccccc1 [Alverine citrate salt]
3. CC(C(=O)O)c1ccc(C(=O)c2cccs2)cc1 (stereo not given)

1: 0.287; 2: 0.221; 3: 0.263

The following compounds each have a reported value; give each one's growth.
1. CC[C@H]1OC(=O)[C@H](C)[C@@H](O[C@H]2C[C@@](C)(OC)[C@@H](O)[C@H](C)O2)[C@H](C)[C@@H](O[C@@H]2O[C@H](C)C[C@H](N(C)C)[C@H]2O)[C@](C)(O)C[C@@H](C)/C(=N\OCOCCOC)[C@H](C)[C@@H](O)[C@]1(C)O
2. CN(C)CCCN1c2ccccc2Sc2ccc(Cl)cc21 [Chlorpromazine hydrochloride]

1: 0.0412; 2: 0.054

List reported growth for each of these compounds:
1. Nc1nc(=O)c2c([nH]1)NC[C@@H](CNc1ccc(C(=O)N[C@@H](CCC(=O)O)C(=O)O)cc1)N2C=O [Folinic acid calcium salt]
2. COc1cc(C(=O)NC2CCCNC2)cc(OC)c1OC (stereo not given) [Troxipide]
3. Clc1ccc(COC(Cn2ccnc2)c2ccc(Cl)cc2Cl)c(Cl)c1 (stereo not given)

1: 0.289; 2: 0.286; 3: 0.201

Each compound below has a reported value. Please supply its growth.
1. Cc1ncc([N+](=O)[O-])n1CC(O)CCl (stereo not given)
2. CCN1C(=O)NC(c2ccccc2)C1=O (stereo not given)

0.282
0.304
